Kindly supply the reported processed/unprocessed PreF trimer binding ratio values for the records listed here.
molecular target: T1, Processed stabilized hMPV PreF trimer (115BV) (human metapneumovirus, strain B2); assay: BLI, ratio to unprocessed PreF trimer
T1 construct: also called Processed hMPV PreF trimer; processed PreF
Just the number, please.

Prompt line: # return recorded processed/unprocessed PreF trimer binding ratio for input M3A05 (antibody, V domains shown, IgG) VH: QITLKESGPTLVKPTQTLTLTCTFSGFSLNTGGVSVGWIRQPPGKALEWLALIYWDGDKRYSPSLKSRLTITKDTSKNQVVFTMTNMDPVDTATYYCAHRENSAYIDFWGQGTLVTVSS VL: QSVLTQPPSVSAAPGQKVTISCSGSSSNIGNNYVSWYQQLPGAAPKLLIYDNNKRPSGIPDRFSGSKSGTSASLGITGLQTGDEADYYCGTWDSSLSVGFYVFGTGTKVTVL
Response line: 0.09

Prompt line: # return recorded processed/unprocessed PreF trimer binding ratio for input M3C06 (antibody, V domains shown, IgG) VH: QVQLVQSGAEVKKPGSSVKVSCKAYGGTLSNYAISWVRQAPGQGLHWMGRIIPVMNVANYADNFQGRVTITADKSTSTAYMELSSLRSEDAAIYYCATARGLGSLEGGDAFDVWGQGTMLTVSS VL: DIVMTQSPDSVAVSLGERATISCKSSLSLLYSSNNKNYLVWYQQKPGQPPKLLFYWASTRESGVPDRFSASGSGTDFTLTISSLQAEDVAVYYCQQYYSTPITFGQGTRLEIR
Response line: 0.93

Prompt line: # return recorded processed/unprocessed PreF trimer binding ratio for input M2E01 (antibody, V domains shown, IgG) VH: QLQLQESGPGLVKPSETLSLTCTVSGGSISSSTYYWGWIRQPPGKGLEWIGTIYYSGSTDYNPSLKSRLTISVDTSKNQFSLRLRSVTAADTAVYYCARLVSPYDQFDYWGQGTLVTVSS VL: DIQMTQSPSSLSASVGDRVTITCRASQTITTYLSWYLQKPGKAPKLLIYAASSWQSGVPSRFSGSGSGTDFTLTISSLQPEDFATYYCQQSYSTPYTFGQGTKLEIK
Response line: 0.31

Prompt line: # return recorded processed/unprocessed PreF trimer binding ratio for input M1A04 (antibody, V domains shown, IgG) VH: EVQLVESGGGLVRPGGSLRLSCAASGFNVRNYYMSWVRQAPGKGLEWISVIYGGGTTFYAGSVKGRFTISRDDSKSTLFLQMNSLRADDTAVYYCARDPGTVMSTENLQGMDVWGQGTTVTVSS VL: DIQMTQSPSSLSASVGDRVTITCRASQTIRSYLNWYQQKPGKAPNLLIYAATSLQSGVPSRFSGSGSGTDFTLTISSLQPEDSATYYCQQSFSTLYSFGQGTRLEIK
Response line: 1.23

Prompt line: # return recorded processed/unprocessed PreF trimer binding ratio for input M2E07 (antibody, V domains shown, IgG) VH: EVQLVESGGGLVQTGGSLRLACAASGFTFSSYAMSWVRQAPGKGLEWVSTITESGDDAYYADSVKGRLTISRDNSKNTLFLHLNGLRSEDTARYYCAKDMGLYKSSWYGNFFYYYYMDVWGEGTTVTVSS VL: QSALTQPASVSGSPGQSITISCTGSSSNIGSFDLISWYQQHPGKAPKFIIYEGDKRPSGVSYRFSGSKSGSTASLTISGLQAEDEAYYYCCSYARSRTLVFGGGTKVTVL
Response line: 0.22
